Value source: patent US11602521B2

- procedure_details: DMT plasma concentration after a single SC injection of DMT succinate to rats
- Assay type: in vivo
- applied_conditions: rat, plasma, sc, 10 mg/kg, 10 mg/kg DMT succinate single SC, Day 1, rats; read-out: AUCTlast
measurement_type: AUC(0-t) (ng·h/mL)

INSERT INTO measurements (smiles_record, measurement_type, recorded_measurement) VALUES
  ('CN(C)CCc1c[nH]c2ccccc12', 'AUC(0-t)', 3560);

###

- procedure_details: DMT plasma concentration after a single SC injection of DMT succinate to rats
- Format: in vivo
- applied_conditions: rat, plasma; 5 mg/kg DMT succinate single SC, Day 1, rats
measurement_type: Tmax

INSERT INTO measurements (molecule, measurement_type, recorded_measurement) VALUES
  ('CN(C)CCc1c[nH]c2ccccc12 [DMT, N,N-dimethyltryptamine]', 'Tmax', '30 min');
